Each entry below lists one item and its recorded RORγt (FL) Reporter Assay B or C, % inhibition (value marked *) value.
# system.tested: full-length human RORγt (Homo sapiens (Human), UniProt P51449)
# Sequence (P51449 other isoform, or with tags, fused parts or gaps): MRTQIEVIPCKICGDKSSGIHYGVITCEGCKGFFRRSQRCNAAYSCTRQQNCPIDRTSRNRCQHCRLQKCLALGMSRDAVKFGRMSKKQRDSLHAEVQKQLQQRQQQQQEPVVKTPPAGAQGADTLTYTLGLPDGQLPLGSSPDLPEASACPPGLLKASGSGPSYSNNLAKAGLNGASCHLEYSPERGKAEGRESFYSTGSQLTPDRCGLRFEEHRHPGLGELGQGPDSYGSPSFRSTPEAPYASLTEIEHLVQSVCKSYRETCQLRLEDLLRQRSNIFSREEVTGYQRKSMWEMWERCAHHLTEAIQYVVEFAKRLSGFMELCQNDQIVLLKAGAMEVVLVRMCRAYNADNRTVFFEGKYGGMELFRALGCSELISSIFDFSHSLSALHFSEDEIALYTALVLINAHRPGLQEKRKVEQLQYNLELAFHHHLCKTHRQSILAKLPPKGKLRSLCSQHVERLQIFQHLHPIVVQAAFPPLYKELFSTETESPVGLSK
# protocol.summary: RORγt (full-length human) reporter assay, Conditions B or C
# Format: cell-based
# particulars: Conditions B or C; marked *: footnote not given
measure: RORγt (FL) Reporter Assay B or C, % inhibition (value marked *)

structure.string: CC[C@H](Nc1cc(C(F)F)c(-c2sc(C(=O)N[C@H](C)CO)nc2C(=O)N2C3CCC2CC3)cn1)C(F)(F)F
meas.value: 95* %
//
structure.string: C[C@H](Nc1cc(C(F)F)c(-c2sc(C(=O)NCC(C)(C)O)nc2C(=O)N2CCCC[C@@H]2C)cn1)C(F)(F)F
meas.value: 106* %
//
structure.string: C[C@H](Nc1cc(C(F)(F)F)c(-c2sc(C(=O)NCC(C)(C)O)nc2C(=O)N2CCCC[C@@H]2C)cn1)C(F)(F)F
meas.value: 96* %
//
structure.string: C[C@H](Nc1cc(C(F)F)c(-c2sc(C(=O)NCC(C)(C)O)nc2C(=O)N2C3CCC2CC3)cn1)C1CC1
meas.value: 92* %
//
structure.string: C[C@H](Nc1cc(C(F)F)c(-c2sc(C(=O)N[C@H]3C[C@H](O)C3)nc2C(=O)N2CCC[C@@H]2C)cn1)C(F)(F)F
meas.value: 85* %
//
structure.string: CCC(C)(C)Nc1cc(C(F)F)c(-c2sc(C(=O)NCC(C)(C)O)nc2C(=O)N2C3CCC2CC3)cn1
meas.value: 121* %
//
structure.string: CC[C@H](Nc1cc(C(F)F)c(-c2sc(C(=O)N[C@@H]3CCC[C@H]3O)nc2C(=O)N2C3CCC2CC3)cn1)C(F)(F)F
meas.value: 110* %

* * *

Each entry below lists one item and its recorded Kd value.
# system.tested: human RORγt ligand binding domain (RORγt LBD) (Homo sapiens (Human), UniProt P51449)
# Sequence (P51449 other isoform, or with tags, fused parts or gaps): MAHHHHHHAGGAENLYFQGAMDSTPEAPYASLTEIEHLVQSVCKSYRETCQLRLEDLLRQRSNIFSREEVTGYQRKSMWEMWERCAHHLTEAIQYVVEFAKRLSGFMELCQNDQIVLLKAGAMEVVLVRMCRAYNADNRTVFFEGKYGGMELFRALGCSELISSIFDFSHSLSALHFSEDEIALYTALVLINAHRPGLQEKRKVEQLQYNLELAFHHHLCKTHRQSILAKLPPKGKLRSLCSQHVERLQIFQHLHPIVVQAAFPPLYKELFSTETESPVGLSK
# protocol.summary: RORγt ThermoFluor® assay (thermal shift binding)
# particulars: read-out: ThermoFluor® Assay, Kd
measure: Kd (nM)

compound: CC[C@H](Nc1cc(C(F)(F)F)c(-c2sc(C(=O)NCC(C)(C)O)nc2C(=O)N2C3CCC2CC3)cn1)C(F)(F)F
unit.info: nM
meas.value: 3.2
//
compound: CC[C@H](Nc1cc(C(F)F)c(-c2sc(C(=O)N[C@H]3CC[C@H](O)C3)nc2C(=O)N2CCC[C@@H]2C)cn1)C(F)(F)F
unit.info: nM
meas.value: 1.5
//
compound: C[C@H]1CCCN1C(=O)c1nc(C(=O)N(C)CC(C)(C)O)sc1-c1cnc(NC(C)(C)C)cc1C(F)(F)F
unit.info: nM
meas.value: 5.3
//
compound: CC(C)S(=O)(=O)Nc1cc(C(F)(F)F)c(-c2sc(C(=O)NCC(C)(C)O)nc2C(=O)N2CCC(F)CC2)cn1 [Comparator Example 3, reference compound]
unit.info: nM
meas.value: 53000
//
compound: C[C@H]1CCCN1C(=O)c1nc(C(=O)NCC(C)(C)O)sc1-c1cnc(N[C@H]2CCCCC2(F)F)cc1C(F)(F)F (relative stereo)
unit.info: nM
meas.value: 1.7
//
compound: C[C@H]1CCCN1C(=O)c1nc(C(=O)N[C@H](C)C(C)(C)O)sc1-c1cnc(NC(C)(C)C)cc1C(F)(F)F
unit.info: nM
meas.value: 1.3
